ATTRIBUTE_MEASURED: melting point

Data request: Would you mind telling me what melting point value was observed for Cc1ccc(S(=O)(=O)N2CCCC2c2nnnn2[C@@](C)(Cc2ccc(N(C(=O)OC(C)(C)C)C(=O)C3CCNCC3)cc2)C(=O)O)cc1 (stereo not given in full) ?
Data returned: 180 to 189 °C

Data request: Next up: "CN(CCCc1nc2ccccc2[nH]1)C(=O)OCc1ccccc1"
Data returned: 83 to 86 °C

Data request: Next up: COC(=O)c1cncn1C1c2cccc(Cl)c2CC1(C)C (stereo not given)
Data returned: 111 to 113 °C

Data request: Next up: "Cc1ccc(Oc2ccccc2-n2cncn2)c(O)c1"
Data returned: 132 to 133 °C

Data request: Next up: CCCc1nc(C(C)O)c(C(=O)OCC)[nH]1 (stereo not given)
Data returned: 151 to 153 °C

Data request: Next up: "OCc1ccc2ccc3cccc4ccc1c2c34"
Data returned: 125 to 126 °C

Data request: Next up: "CCCCNC(=O)[C@@H]1C[C@]2(NC(=O)N(CCCN3CCC(O)CC3)C2=O)c2cc(F)ccc2O1"
Data returned: 86 to 88 °C

Data request: Next up: COC(=O)C(Cc1ccc(OCc2nc3ccc(OC)cc3n2C)cc1)NS(C)(=O)=O (stereo not given)
Data returned: 168 to 171 °C

Data request: Next up: "CCCCCCCCCCCCCCCCS(=O)(=O)NCCc1ccc(C(=O)O)cc1"
Data returned: 168 to 169 °C

Data request: Next up: "O=c1ncc(C(F)(F)F)c[nH]1"
Data returned: 154 °C
